TESTED TARGET: T1, human CD3e/g (human, UniProt P07766 23-126; P09693 23-116)
T1 construct: Bought soluble protein; also called hCD3e/g; human CD3e/g (Acro CDD-C52W4)
T1 sequence (P07766 23-126, chain 1 of 2): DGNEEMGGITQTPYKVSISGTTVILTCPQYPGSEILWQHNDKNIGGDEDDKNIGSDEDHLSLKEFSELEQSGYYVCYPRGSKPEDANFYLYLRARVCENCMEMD
T1 sequence (P09693 23-116, chain 2 of 2): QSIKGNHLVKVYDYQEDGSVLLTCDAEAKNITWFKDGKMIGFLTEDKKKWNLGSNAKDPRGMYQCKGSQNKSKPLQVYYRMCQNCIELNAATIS
ASSAY EXPLANATION: SPR (Carterra LSA), mAb on chip
The entries below are paired with their reported pKd.
Note on pKd: it is the negative log10 of concentration, concentration in mol/L.

Would you please look over these solved cases?
mAb 164 (antibody, V domains shown, VH and VL only) VH: EVQLVESGGGLVKTGGSLRLSCVASGFSFKKAWMNWVRQAPGKGLEWVGRIKRNTDGGTADYAAPVKGRFTLSRDDSKKTLFLQMNSLKTEDTAVYYCTTLDSSSYYVGYYYMDVWGKGTTVTVSS VL: DIQMTQSPSSVSASVGDRVTITCRASQDIKNWLAWYQQKPGKAPKLLIYTASSLQSGVPSRFSGSGSGTDFTLTIGSLQPEDFATYYCQQAHSLPITFGQGTRLEIK
7.82
mAb 209 (antibody, V domains shown, VH and VL only) VH: QVQLVESGGGVVQPGRSLRLSCAASGFTFSGYGMHWVRQAPGKGLEWVAIIYYNGKKEYYADSVKGRFTVSRDNSKNMLYLQMNSLRAEDTAVYYCTRGEGYNWFDPWGQGTLVTVSS VL: EIVMTQSPATLSVSPGERATLSCRASQTVSSNLAWYQQKPGQAPRLLIYGASTRATGIPARFSGSGSGTEFTLTISSLQSEDFAVYYCKQYNNRPLTFGGGTKVEIK
8.24

Now take the following binder into account.
*Q* Please look up its pKd: mAb 101 (antibody, V domains shown, VH and VL only) VH: QGQLVESGGGVVQPGRSLRLSCAASGFTFRGFGMHWVRQAPGKGLEWVAIIYYDGKNKYYADSVKGRFTISRDNSKNMLYLQMNSLRAEDTAVYYCAKGGGYNWFDPWGQGTLVTVSS VL: DIQMTQSPSSLSASVGDRVTITCRASQSISTYLNWYQQKPGKAPKLLIYSASSLQSGVPSRFSGSGSGTDFTLTISNLQPEDFAIYYCQRSYSPPFTFGPGTKLDIR
*A* 7.96
